# target_entity: human FXR (Homo sapiens, UniProt Q96RI1)
# Construct: expressed in transfected cells; host or cells: HEK293 cells stably carrying a 5xGal4-response-element firefly luciferase reporter, transiently transfected with the pcDNA3.1-Gal4-FXR plasmid
# protocol_description: transient human FXR/Gal4-luciferase reporter assay
# Format: cell-based
# experimental_context: Gal4-hFXR reporter in HEK293 cells; relative to 8 μM GW-4064; read-out: FXR EC50
List of EC50 values.
Expressed in nM, but write only the number.

Record excerpt, results attached:
| molecule | recorded_metric | reading |
| --- | --- | --- |
| N#Cc1ccc(N2CCC3(CC2)CC(=Cc2c(-c4c(Cl)cccc4Cl)noc2C2CC2)C3)cc1 | EC50 | 2360 |
| O=C(O)C1(c2ccc(N3CCC4(CC3)CC(=Cc3c(-c5c(Cl)cccc5Cl)noc3C3CC3)C4)cc2)CC1 | EC50 | 391 |
| NC(=O)c1cc(C(F)(F)F)c2cc(N3CCC4(CC3)CC(Cc3c(-c5ccccc5C(F)(F)F)noc3C3CC3)C4)ccc2n1 | EC50 | 2240 |
| COCCOc1cc(C(=O)O)nc2ccc(N3CCC4(CC3)CC(=Cc3c(-c5ccccc5OC(F)(F)F)noc3C3CC3)C4)cc12 | EC50 | 634 |
| O=C(O)c1ccc2cc(N3CCC4(CC3)CC(=Cc3c(-c5c(Cl)cccc5Cl)noc3C3CC3)C4)ccc2c1 | EC50 | 53 |
| O=C(O)c1ccc2cc(N3CCC4(CC3)CC(=Cc3c(-c5ccccc5C(F)(F)F)noc3C3CC3)C4)ccc2n1 | EC50 | 172 |
| O=C(O)c1cc(OC2CCC2)c2cc(N3CCC4(CC3)CC(=Cc3c(-c5c(Cl)cncc5Cl)noc3C(F)(F)F)C4)ccc2n1 | EC50 | 11 |
| NC(=O)N1CCc2cc(N3CCC4(CC3)CC(=Cc3c(-c5ccccc5OC(F)(F)F)noc3C3CC3)C4)ccc2C1 | EC50 | 1400 |
| O=C(O)c1cc(OC2CCC2)c2cc(N3CCC4(CC3)CC(=Cc3c(-c5ccccc5OC(F)(F)F)noc3C3CC3)C4)ccc2n1 | EC50 | 64 |
| CCOc1cc(C(=O)O)nc2ccc(N3CCC4(CC3)CC(=Cc3c(-c5ccccc5C(F)(F)F)noc3C3CC3)C4)cc12 | EC50 | 18 |

Pending molecule:
q: Fill blank: measured EC50 of the molecule `O=C(O)c1ccc2cc(N3CCC4(CC3)CC(Cc3c(-c5ccccc5C(F)(F)F)noc3C3CC3)C4)ccc2n1` is ____.
a: 243

----------
List of EC50 values.
# target_entity: human FXR (Homo sapiens, UniProt Q96RI1)
# Construct: expressed in transfected cells; host or cells: HEK293 cells stably carrying a 5xGal4-response-element firefly luciferase reporter, transiently transfected with the pcDNA3.1-Gal4-FXR plasmid
# protocol_description: transient human FXR/Gal4-luciferase reporter assay
# Format: cell-based
# experimental_context: Gal4-hFXR reporter in HEK293 cells; relative to 8 μM GW-4064; read-out: FXR EC50
# answer = value followed by unit

| compound | target_entity | EC50 |
| --- | --- | --- |
| O=C(c1cc(OC2CCC2)c2cc(N3CCC4(CC3)CC(Cc3c(-c5ccccc5C(F)(F)F)noc3C3CC3)C4)ccc2n1)N1CCCCC1 | human FXR (Homo sapiens, UniProt Q96RI1) | 34 nM |
| O=C(O)c1ccc(N2CCC3(CC2)CC(Nc2c(-c4c(Cl)cccc4Cl)noc2C2CC2)C3)nc1 | human FXR (Homo sapiens, UniProt Q96RI1) | 1220 nM |
| O=C(O)C1(c2ccc(N3CCC4(CC3)CC(=Cc3c(-c5c(Cl)cccc5Cl)noc3C3CC3)C4)cc2)CCC1 | human FXR (Homo sapiens, UniProt Q96RI1) | 210 nM |
| COc1cc2nc(N3CCC4(CC3)CC(=Cc3c(-c5c(Cl)cncc5Cl)noc3C3CC3)C4)sc2cc1C(=O)O | human FXR (Homo sapiens, UniProt Q96RI1) | 157 nM |
| Cc1cc(C(=O)O)cc2sc(N3CCC4(CC3)CC(=Cc3c(C5CC5)nnn3-c3c(Cl)cccc3Cl)C4)nc12 | human FXR (Homo sapiens, UniProt Q96RI1) | 252 nM |

q: Fill blank: measured EC50 of the compound `Cc1nc(C(=O)O)c2ccc(N3CCC4(CC3)CC(=Cc3c(-c5ccccc5C(F)(F)F)noc3C3CC3)C4)cn12` is ____.
a: 114 nM

q: Fill blank: measured EC50 of the compound `O=C(O)c1ccc(N2CCC3(CC2)CC(Nc2c(-c4c(Cl)cccc4Cl)noc2C2CC2)C3)nn1` is ____.
a: 1820 nM

q: Fill blank: measured EC50 of the compound `O=C(O)c1ccc2nc(N3CCC4(CC3)CC(Cc3c(-c5ccccc5C(F)(F)F)noc3C3CC3)C4)sc2n1` is ____.
a: 744 nM

----------
# target_entity: human FXR (Homo sapiens)
# Construct: expressed in transfected cells; host or cells: HEK293 cells stably carrying a 5xGal4-response-element firefly luciferase reporter, transiently transfected with the pcDNA3.1-Gal4-FXR plasmid
# Sequence (Q96RI1 262-486 limits assumed): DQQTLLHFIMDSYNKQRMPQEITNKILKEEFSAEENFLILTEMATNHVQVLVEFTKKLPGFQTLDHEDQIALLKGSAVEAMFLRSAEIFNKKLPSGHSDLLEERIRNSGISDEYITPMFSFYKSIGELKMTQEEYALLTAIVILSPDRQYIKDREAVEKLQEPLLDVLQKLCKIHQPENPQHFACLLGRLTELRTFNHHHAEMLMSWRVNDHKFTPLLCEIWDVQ
# protocol_description: transient human FXR/Gal4-luciferase reporter assay
# Format: cell-based
# experimental_context: Gal4-hFXR reporter in HEK293 cells; relative to 8 μM GW-4064; read-out: FXR EC50
# Method: The exemplified compounds of the present invention were tested in the transient human FXR/Gal4-luciferase reporter assay, and assay results were reported in Table 1 together with other analytical data. A Gal4-hFXR fusion construct reporter system was used as the primary assay to characterize compound activity. A construct including 5 copies of the Gal4 promoter response element upstream of a firefly luciferase reporter cDNA was stably expressed in HEK293 cells. […]
Entry class follows EC50: low: < 30 nM; moderate: ≥ 30 nM and < 300 nM; high: ≥ 300 nM

| compound | target_entity | category_label |
| --- | --- | --- |
| O=C(O)c1cc(OC2CCCC2)c2cc(N3CCC4(CC3)CC(=Cc3c(-c5ccccc5C(F)(F)F)noc3C3CC3)C4)ccc2n1 | human FXR (Homo sapiens) | low |
| O=C(O)c1cccc(N2CCC3(CC2)CC(=Cc2c(-c4c(Cl)cccc4Cl)noc2C2CC2)C3)c1 | human FXR (Homo sapiens) | high |
| O=C(O)c1cc(OC2CCC2)c2cc(N3CCC4(CC3)CC(=Cc3c(-c5ccccc5C(F)(F)F)noc3C3CC3)C4)ccc2n1 | human FXR (Homo sapiens) | low |
| O=C(O)c1cc(OC(F)(F)F)c2nc(N3CCC4(CC3)CC(=Cc3c(-c5c(Cl)cncc5Cl)noc3C3CC3)C4)sc2c1 | human FXR (Homo sapiens) | moderate |
| O=C(O)c1cc(F)c2nc(N3CCC4(CC3)CC(=Cc3c(-c5c(Cl)cccc5Cl)noc3C3CC3)C4)sc2c1 | human FXR (Homo sapiens) | moderate |

q: Class for `N#Cc1cnc(N2CCC3(CC2)CC(Cc2c(-c4c(Cl)cccc4Cl)noc2C2CC2)C3)s1` ?
a: high

q: Class for `CN(C)C(=O)c1cc(OC2CCC2)c2cc(N3CCC4(CC3)CC(Cc3c(-c5ccccc5C(F)(F)F)noc3C3CC3)C4)ccc2n1` ?
a: moderate

q: Class for `COc1ccc(C(=O)O)c2ccc(N3CCC4(CC3)CC(=Cc3c(-c5c(Cl)cncc5Cl)noc3C3CC3)C4)nc12` ?
a: high

q: Class for O=C(O)c1cc(OC2CCOC2)c2cc(N3CCC4(CC3)CC(Cc3c(-c5ccccc5C(F)(F)F)noc3C3CC3)C4)ccc2n1 (stereo not shown) ?
a: low

q: Class for `O=C(O)c1cc(OC2CCCC2)c2cc(N3CCC4(CC3)CC(Cc3c(-c5ccccc5OC(F)(F)F)noc3C3CC3)C4)ccc2n1` ?
a: low

q: Class for `CCOC(=O)c1cc(C(F)(F)F)c2cc(N3CCC4(CC3)CC(Cc3c(-c5ccccc5C(F)(F)F)noc3C3CC3)C4)ccc2n1` ?
a: moderate

q: Class for `O=C(O)c1cc(C(F)(F)F)cc(N2CCC3(CC2)CC(Cc2c(-c4ccccc4C(F)(F)F)noc2C2CC2)C3)n1` ?
a: high

q: Class for `COc1cc(C(=O)O)nc2ccc(N3CCC4(CC3)CC(Cc3c(-c5ccccc5OC(F)(F)F)noc3C3CC3)C4)cc12` ?
a: low

q: Class for `O=C(O)c1cc2ccc(N3CCC4(CC3)CC(=Cc3c(-c5c(Cl)cccc5Cl)noc3C3CC3)C4)cc2nn1` ?
a: moderate

q: Class for CC(O)Cc1cc(C(=O)O)nc2ccc(N3CCC4(CC3)CC(Cc3c(-c5ccccc5C(F)(F)F)noc3C3CC3)C4)cc12 (stereo not shown) ?
a: moderate

q: Class for O=C(O)c1cc(F)c2nc(N3C4CCC3CC3(CC(Nc5c(-c6c(Cl)cccc6Cl)noc5C5CC5)C3)C4)sc2c1 (stereo not shown) ?
a: high

The values you see were collected from patent US11370785B2.
